I'd appreciate it if you could supply cytotoxicity at 10 µM values for the items below.
TEST_DESCRIPTION: Toxicity liver stage against HepG2, at 10uM
Format: cell-based
Design: test concentration 10 uM, cell line HepG2-A16-CD81EGFP
REPORTED_CONDITIONS: human, HepG2-A16-CD81EGFP cells; read-out: INHIBITION
Answers are plain numbers, in %.

In plain terms, Cc1noc(-c2cnc(NCC3CCCO3)nc2-c2ccco2)c1C (configuration not stated) has a documented cytotoxicity at 10 µM of 7.74

In plain terms, c1ccc(-c2cnc(CNCC3CCCN3c3cccnn3)o2)cc1 (configuration not stated) has a documented cytotoxicity at 10 µM of 1.56

In plain terms, COc1ccc2c(c1)C1(CCN(Cc3nccs3)CC1)N(C)CC2 has a documented cytotoxicity at 10 µM of -148

In plain terms, COCCN1C(=O)[C@@H]2CC[C@H]1CN(c1ncccn1)C2 has a documented cytotoxicity at 10 µM of 7.01

In plain terms, CC(c1ccccc1F)N(CC(N)=O)C1CC1 (configuration not stated) has a documented cytotoxicity at 10 µM of -46.3

In plain terms, COCC1c2nnn(CC3CC3)c2CCN1C(=O)Cc1cccs1 (configuration not stated) has a documented cytotoxicity at 10 µM of -15.8

In plain terms, CSc1ccc(C(C(=O)O)N2CCCC2)cc1 (configuration not stated) has a documented cytotoxicity at 10 µM of 1.16

In plain terms, CS(=O)(=O)N1CCC(NC(=O)COc2ccc(Cl)cc2)CC1 has a documented cytotoxicity at 10 µM of -4.05

In plain terms, Cc1ccc(OC2(C(=O)NC(C)c3csc(C)n3)CCNCC2)cc1 (configuration not stated) has a documented cytotoxicity at 10 µM of -0.432

In plain terms, COCC(C)NC(=O)CN1CCCC1 (configuration not stated) has a documented cytotoxicity at 10 µM of -7.42

Answer for every listed entry: what is its cytotoxicity at 10 µM? The entries follow.
1. Cc1cnn(CC2CCCN2c2nn3cc(C)nc3s2)c1 (configuration not stated)
2. NC(=O)CCC1CCCN(c2ccnc3cc(F)ccc23)C1 (configuration not stated)

1: -2.84; 2: 14.6
